The origin of these recorded values is the supplement of paper PMC7877785.

Parameter: self-splicing fitness (ln). Scope: all listed entries.
- Assay Explanation: self-splicing fitness, log relative to wild type (ln ratio); higher = more splicing; Tetrahymena group I intron in knt gene, E. coli kanamycin selection, DiMSum; sequences stand for … in CUCUCU…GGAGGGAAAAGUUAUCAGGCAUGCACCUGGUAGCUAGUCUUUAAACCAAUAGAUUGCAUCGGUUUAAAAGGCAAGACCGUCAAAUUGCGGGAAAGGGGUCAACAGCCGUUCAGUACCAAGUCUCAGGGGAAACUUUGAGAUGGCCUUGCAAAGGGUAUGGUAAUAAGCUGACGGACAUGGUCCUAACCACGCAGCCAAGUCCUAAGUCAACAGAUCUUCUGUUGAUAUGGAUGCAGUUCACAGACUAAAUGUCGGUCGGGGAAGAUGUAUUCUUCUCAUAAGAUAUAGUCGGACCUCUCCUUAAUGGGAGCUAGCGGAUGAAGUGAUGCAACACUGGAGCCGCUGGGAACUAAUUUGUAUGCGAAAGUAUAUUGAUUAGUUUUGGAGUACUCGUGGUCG;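 note: selection with 25 µg/mL kanamycin versus none on LB agar overnight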
- Setup Conditions: 37 °C
Endpoint: self-splicing fitness (ln)

{"Sequence Chain": "ACUAAGCAAUAUUACGGGCA", "Measurement": -0.405}
{"Sequence Chain": "AUUCAGCAAUAUUACGACCG", "Measurement": -0.187}
{"Sequence Chain": "UUCCAGCAAUAUUACGCAAU", "Measurement": -1.31}
{"Sequence Chain": "CAGCAGCAAUAUUACGCGUG", "Measurement": -1.92}
{"Sequence Chain": "UGGCAGCAAUAUUACGGGCG", "Measurement": 0.586}
{"Sequence Chain": "UGCUAGCAAUAUUACGCUCA", "Measurement": 0.646}
{"Sequence Chain": "UCGGAGCAAUAUUACGGCUA", "Measurement": -1.32}
{"Sequence Chain": "GGCUAGCAAUAUUACGUUUC", "Measurement": -0.182}
{"Sequence Chain": "CGUCAGCAAUAUUACGAAUU", "Measurement": -0.915}
{"Sequence Chain": "GAUUAGCAAUAUUACGAGCU", "Measurement": -0.791}
{"Sequence Chain": "UUUGAGCAAUAUUACGACCG", "Measurement": -1.19}
{"Sequence Chain": "AAAUAGCAAUAUUACGUAUU", "Measurement": -0.844}
{"Sequence Chain": "UUAAAGCAAUAUUACGCACU", "Measurement": 0.681}
{"Sequence Chain": "AAGAAGCAAUAUUACGGUCC", "Measurement": 0.249}
{"Sequence Chain": "GCGCAGCAAUAUUACGUGAU", "Measurement": 0.488}
{"Sequence Chain": "AUUCAGCAAUAUUACGCGUU", "Measurement": -0.348}

###

- Assay Explanation: self-splicing fitness, log relative to wild type (ln ratio); higher = more splicing; Tetrahymena group I intron in knt gene, E. coli kanamycin selection, DiMSum; sequences stand for … in CUCUCU…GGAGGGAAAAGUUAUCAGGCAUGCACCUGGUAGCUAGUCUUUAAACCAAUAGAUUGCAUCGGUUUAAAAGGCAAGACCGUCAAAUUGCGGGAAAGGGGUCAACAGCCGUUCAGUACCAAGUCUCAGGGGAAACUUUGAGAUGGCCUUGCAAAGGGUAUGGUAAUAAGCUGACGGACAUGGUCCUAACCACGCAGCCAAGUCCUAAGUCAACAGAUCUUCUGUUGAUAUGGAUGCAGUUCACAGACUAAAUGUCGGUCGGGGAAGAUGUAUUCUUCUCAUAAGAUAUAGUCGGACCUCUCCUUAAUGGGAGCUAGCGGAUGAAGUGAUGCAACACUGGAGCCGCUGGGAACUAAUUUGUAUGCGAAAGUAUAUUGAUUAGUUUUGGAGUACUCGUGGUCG
- Setup Conditions: 37 °C
The following sequences are listed with their measured self-splicing fitness (ln) values.
Endpoint: self-splicing fitness (ln)

{"Sequence Chain": "UCGCAGCAAUAUUACGCGGU", "Measurement": -2.41}
{"Sequence Chain": "GUAGAGCAAUAUUACGGCUC", "Measurement": -0.26}
{"Sequence Chain": "GGGUAGCAAUAUUACGGGGU", "Measurement": -3.06}
{"Sequence Chain": "GGCAAGCAAUAUUACGGGCG", "Measurement": -0.132}
{"Sequence Chain": "AAUAAGCAAUAUUACGCCUG", "Measurement": 0.286}
{"Sequence Chain": "ACGUAGCAAUAUUACGUGUG", "Measurement": -3.01}
{"Sequence Chain": "CCUCAGCAAUAUUACGCUAA", "Measurement": -3.05}
{"Sequence Chain": "CGGUAGCAAUAUUACGCAGC", "Measurement": -1.72}
{"Sequence Chain": "UUUAAGCAAUAUUACGCUUG", "Measurement": -1.4}
{"Sequence Chain": "GGCAAGCAAUAUUACGAUCU", "Measurement": -0.162}
{"Sequence Chain": "ACAAAGCAAUAUUACGGGAG", "Measurement": -1.08}
{"Sequence Chain": "GCUAAGCAAUAUUACGCAUU", "Measurement": -0.163}
{"Sequence Chain": "UGACAGCAAUAUUACGAGAA", "Measurement": -2.33}
{"Sequence Chain": "GUGUAGCAAUAUUACGAAAU", "Measurement": -1.1}
{"Sequence Chain": "CGCGAGCAAUAUUACGCCUG", "Measurement": -1.99}
{"Sequence Chain": "AGAGAGCAAUAUUACGUGGA", "Measurement": -2.3}
{"Sequence Chain": "ACGGAGCAAUAUUACGAGGG", "Measurement": -2.82}
{"Sequence Chain": "GUUGAGCAAUAUUACGCGUC", "Measurement": -0.951}
{"Sequence Chain": "UGGGAGCAAUAUUACGUGAG", "Measurement": -1.14}
{"Sequence Chain": "CAUGAGCAAUAUUACGCGGA", "Measurement": -1.64}
{"Sequence Chain": "GGUUAGCAAUAUUACGGGGC", "Measurement": -2.66}
{"Sequence Chain": "GAGAAGCAAUAUUACGCGGC", "Measurement": -0.0876}
{"Sequence Chain": "AUUCAGCAAUAUUACGAUAG", "Measurement": -2.57}
{"Sequence Chain": "AGUCAGCAAUAUUACGUCCA", "Measurement": -1.05}
{"Sequence Chain": "GUCCAGCAAUAUUACGGGUG", "Measurement": 0.0761}
{"Sequence Chain": "GGGGAGCAAUAUUACGCGUC", "Measurement": -1.47}
{"Sequence Chain": "CAUGAGCAAUAUUACGCGAU", "Measurement": -1.61}
{"Sequence Chain": "ACAUAGCAAUAUUACGUAUU", "Measurement": -2.78}
{"Sequence Chain": "GCACAGCAAUAUUACGCCUU", "Measurement": -0.623}
{"Sequence Chain": "GUACAGCAAUAUUACGUUUU", "Measurement": -2.72}
{"Sequence Chain": "CAGAAGCAAUAUUACGAGUC", "Measurement": -2.16}
{"Sequence Chain": "UGGUAGCAAUAUUACGUCAG", "Measurement": -0.266}
{"Sequence Chain": "UGCCAGCAAUAUUACGGUGC", "Measurement": -2.14}
{"Sequence Chain": "UCCAAGCAAUAUUACGCACU", "Measurement": -0.918}

###

- Assay Explanation: self-splicing fitness, log relative to wild type (ln ratio); higher = more splicing; Tetrahymena group I intron in knt gene, E. coli kanamycin selection, DiMSum; sequences stand for … in CUCUCU…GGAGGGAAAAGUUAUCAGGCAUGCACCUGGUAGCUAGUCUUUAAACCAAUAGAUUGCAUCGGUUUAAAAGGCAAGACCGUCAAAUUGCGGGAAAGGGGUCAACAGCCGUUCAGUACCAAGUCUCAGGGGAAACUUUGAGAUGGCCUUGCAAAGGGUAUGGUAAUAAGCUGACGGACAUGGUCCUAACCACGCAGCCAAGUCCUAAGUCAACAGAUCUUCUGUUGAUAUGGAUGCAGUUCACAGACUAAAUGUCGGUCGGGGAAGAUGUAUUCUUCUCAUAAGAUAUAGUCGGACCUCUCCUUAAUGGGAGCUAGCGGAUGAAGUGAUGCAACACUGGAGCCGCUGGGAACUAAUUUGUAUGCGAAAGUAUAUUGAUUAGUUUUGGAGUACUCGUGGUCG
- Setup Conditions: 37 °C
self-splicing fitness (ln) for assorted sequences
Endpoint: self-splicing fitness (ln)

{"Sequence Chain": "AUAAAGCAAUAUUACGCUCU", "Endpoint": "self-splicing fitness (ln)", "Measurement": 0.0503}
{"Sequence Chain": "UGUCAGCAAUAUUACGUGCA", "Endpoint": "self-splicing fitness (ln)", "Measurement": -0.232}
{"Sequence Chain": "AGCUAGCAAUAUUACGUGGU", "Endpoint": "self-splicing fitness (ln)", "Measurement": -2.18}
{"Sequence Chain": "AAGUAGCAAUAUUACGGUUU", "Endpoint": "self-splicing fitness (ln)", "Measurement": -0.458}
{"Sequence Chain": "GUUCAGCAAUAUUACGCAAU", "Endpoint": "self-splicing fitness (ln)", "Measurement": -0.106}
{"Sequence Chain": "AUACAGCAAUAUUACGUAGA", "Endpoint": "self-splicing fitness (ln)", "Measurement": -0.327}
{"Sequence Chain": "AGGUAGCAAUAUUACGGCAA", "Endpoint": "self-splicing fitness (ln)", "Measurement": -0.339}
{"Sequence Chain": "GAACAGCAAUAUUACGGAAA", "Endpoint": "self-splicing fitness (ln)", "Measurement": -1.12}
{"Sequence Chain": "CAUAAGCAAUAUUACGAACC", "Endpoint": "self-splicing fitness (ln)", "Measurement": -1.26}
{"Sequence Chain": "AUACAGCAAUAUUACGAUAG", "Endpoint": "self-splicing fitness (ln)", "Measurement": -3}
{"Sequence Chain": "UUGGAGCAAUAUUACGGUGA", "Endpoint": "self-splicing fitness (ln)", "Measurement": -1.36}
{"Sequence Chain": "UCUGAGCAAUAUUACGCCAU", "Endpoint": "self-splicing fitness (ln)", "Measurement": -2.32}
{"Sequence Chain": "CCAUAGCAAUAUUACGCCUA", "Endpoint": "self-splicing fitness (ln)", "Measurement": -2.93}
{"Sequence Chain": "CCGUAGCAAUAUUACGAAUG", "Endpoint": "self-splicing fitness (ln)", "Measurement": 0.0216}
{"Sequence Chain": "AAACAGCAAUAUUACGAAUU", "Endpoint": "self-splicing fitness (ln)", "Measurement": -1.2}
{"Sequence Chain": "AAACAGCAAUAUUACGAAAC", "Endpoint": "self-splicing fitness (ln)", "Measurement": -1.51}
{"Sequence Chain": "ACUCAGCAAUAUUACGGGGC", "Endpoint": "self-splicing fitness (ln)", "Measurement": -2.93}
{"Sequence Chain": "GCCAAGCAAUAUUACGCAAA", "Endpoint": "self-splicing fitness (ln)", "Measurement": -0.448}
{"Sequence Chain": "GGAAAGCAAUAUUACGGCGU", "Endpoint": "self-splicing fitness (ln)", "Measurement": -0.31}
{"Sequence Chain": "GGGCAGCAAUAUUACGGCUA", "Endpoint": "self-splicing fitness (ln)", "Measurement": 0.227}
{"Sequence Chain": "CGCUAGCAAUAUUACGGACA", "Endpoint": "self-splicing fitness (ln)", "Measurement": -0.65}
{"Sequence Chain": "CAACAGCAAUAUUACGGACA", "Endpoint": "self-splicing fitness (ln)", "Measurement": -0.798}
{"Sequence Chain": "ACCUAGCAAUAUUACGCGCG", "Endpoint": "self-splicing fitness (ln)", "Measurement": 0.377}
{"Sequence Chain": "UCCAAGCAAUAUUACGUUUU", "Endpoint": "self-splicing fitness (ln)", "Measurement": -2.91}
{"Sequence Chain": "GUCAAGCAAUAUUACGAGAG", "Endpoint": "self-splicing fitness (ln)", "Measurement": -2.31}
{"Sequence Chain": "UCGUAGCAAUAUUACGUCAU", "Endpoint": "self-splicing fitness (ln)", "Measurement": -2.17}
{"Sequence Chain": "UUAGAGCAAUAUUACGCCUA", "Endpoint": "self-splicing fitness (ln)", "Measurement": -0.0554}
{"Sequence Chain": "CAGGAGCAAUAUUACGGAAU", "Endpoint": "self-splicing fitness (ln)", "Measurement": -2.58}
{"Sequence Chain": "ACCCAGCAAUAUUACGACCG", "Endpoint": "self-splicing fitness (ln)", "Measurement": -0.527}
{"Sequence Chain": "GAAAAGCAAUAUUACGUAGU", "Endpoint": "self-splicing fitness (ln)", "Measurement": -1.75}
{"Sequence Chain": "GAACAGCAAUAUUACGGAGU", "Endpoint": "self-splicing fitness (ln)", "Measurement": -1.66}
{"Sequence Chain": "AAAAAGCAAUAUUACGCCUA", "Endpoint": "self-splicing fitness (ln)", "Measurement": -0.855}
{"Sequence Chain": "UACGAGCAAUAUUACGUAAC", "Endpoint": "self-splicing fitness (ln)", "Measurement": -3.7}
{"Sequence Chain": "CGGAAGCAAUAUUACGUGCU", "Endpoint": "self-splicing fitness (ln)", "Measurement": -2.32}
